Source of measurements: PubChem BioAssay AID2060899

Test system: 565726-208-R1-J5-PDC complex spheroids, growth inhibition;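 note: spheroids exposed to compounds for seven days before readout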
measurement.protocol: Anticancer human tumor 565726-208-R1-J5-PDC patient-derived pancreatic adenocarcinoma cell line growth inhibition [RAS]
conditions: curve of first compound; second compound 0.000949 µM
measurement.type: IC50

Okay, here is my list. What is IC50 for each of these?
1. C[C@@H](NC(=O)c1ncnc(N)c1Cl)c1ncc(C(=O)Nc2cc(C(F)(F)F)c(Cl)cn2)s1 + CCn1c(-c2cc(N3CCN(C)CC3)cnc2C(C)OC)c2c3cc(ccc31)-c1csc(n1)CC(NC(=O)C1CC1C)C(=O)N1CCCC(N1)C(=O)OCC(C)(C)C2
2. C=CC(=O)N1CCN(c2nc(OCC3CCCN3C)nc3c(F)c(-c4nc(N)cc(C)c4C(F)(F)F)c(Cl)cc23)C(C)C1 (stereo not given) + CCn1c(-c2cc(N3CCN(C)CC3)cnc2C(C)OC)c2c3cc(ccc31)-c1csc(n1)CC(NC(=O)C1CC1C)C(=O)N1CCCC(N1)C(=O)OCC(C)(C)C2

Result block:
1. > 10 µM
2. > 1 µM
